target: UniProt Q96P20; test: IL-1β Secretion Assay (NLRP3-dependent IL1β secretion in THP1 cells); settings: PMA-differentiated THP-1 cells; compounds incubated 20 h; 2.5 μM Nigericin 3 h; HTRF IL-1β readout; read-out: IC50 IL-1β Inhibition
PROPERTY_MEASURED: IC50

# count of solved cases: 6
Task: What does the data say about its IC50? Entry: CC(Nc1nnc(-c2ccc(OC(F)F)cc2OC(F)(F)F)c2cccn12)c1cccc(O)c1 (stereo not shown)
Output: < 1 nM

Task: What does the data say about its IC50? Entry: `Cc1cc2c(-c3ccc(C(F)(F)F)cc3C(F)(F)F)nnc(N[C@@H]3CCOC[C@H]3O)n2c1`
Output: 100 to 300 nM

Task: What does the data say about its IC50? Entry: `CN1C[C@H](F)C[C@@H](Nc2nnc(-c3ccc(OC(F)F)cc3OC(F)(F)F)c3cccn23)C1`
Output: 1 to 10 nM

Task: What does the data say about its IC50? Entry: `Cc1cc2c(-c3ccc(C(F)(F)F)cc3C(F)F)nnc(N[C@@H]3CCCN(C)C3)n2n1`
Output: 1 to 10 nM

Task: What does the data say about its IC50? Entry: `COc1ccc(-c2nnc(N[C@@H]3CCCC[C@H]3O)n3cccc23)c(CC(F)(F)F)c1`
Output: 1 to 10 nM

Task: What does the data say about its IC50? Entry: `CN1CCC[C@H](CNc2nnc(-c3ccc(C(F)(F)F)cc3CC(F)(F)F)c3cccn23)C1`
Output: 1 to 10 nM

Next:
Task: What does the data say about its IC50? Entry: `CN1C[C@@H](O)C[C@@H](Nc2nnc(-c3ccc(C(F)(F)F)cc3OC(F)F)c3cccn23)C1`
Output: 1 to 10 nM

###

target: NLRP3 (Homo sapiens, UniProt Q96P20); test: IL-1β Secretion Assay (NLRP3-dependent IL1β secretion in THP1 cells); conditions: PMA-differentiated THP-1 cells; compounds incubated 20 h; 2.5 μM Nigericin 3 h; HTRF IL-1β readout; read-out: IC50 IL-1β Inhibition
Sequence (Q96P20 whole entry): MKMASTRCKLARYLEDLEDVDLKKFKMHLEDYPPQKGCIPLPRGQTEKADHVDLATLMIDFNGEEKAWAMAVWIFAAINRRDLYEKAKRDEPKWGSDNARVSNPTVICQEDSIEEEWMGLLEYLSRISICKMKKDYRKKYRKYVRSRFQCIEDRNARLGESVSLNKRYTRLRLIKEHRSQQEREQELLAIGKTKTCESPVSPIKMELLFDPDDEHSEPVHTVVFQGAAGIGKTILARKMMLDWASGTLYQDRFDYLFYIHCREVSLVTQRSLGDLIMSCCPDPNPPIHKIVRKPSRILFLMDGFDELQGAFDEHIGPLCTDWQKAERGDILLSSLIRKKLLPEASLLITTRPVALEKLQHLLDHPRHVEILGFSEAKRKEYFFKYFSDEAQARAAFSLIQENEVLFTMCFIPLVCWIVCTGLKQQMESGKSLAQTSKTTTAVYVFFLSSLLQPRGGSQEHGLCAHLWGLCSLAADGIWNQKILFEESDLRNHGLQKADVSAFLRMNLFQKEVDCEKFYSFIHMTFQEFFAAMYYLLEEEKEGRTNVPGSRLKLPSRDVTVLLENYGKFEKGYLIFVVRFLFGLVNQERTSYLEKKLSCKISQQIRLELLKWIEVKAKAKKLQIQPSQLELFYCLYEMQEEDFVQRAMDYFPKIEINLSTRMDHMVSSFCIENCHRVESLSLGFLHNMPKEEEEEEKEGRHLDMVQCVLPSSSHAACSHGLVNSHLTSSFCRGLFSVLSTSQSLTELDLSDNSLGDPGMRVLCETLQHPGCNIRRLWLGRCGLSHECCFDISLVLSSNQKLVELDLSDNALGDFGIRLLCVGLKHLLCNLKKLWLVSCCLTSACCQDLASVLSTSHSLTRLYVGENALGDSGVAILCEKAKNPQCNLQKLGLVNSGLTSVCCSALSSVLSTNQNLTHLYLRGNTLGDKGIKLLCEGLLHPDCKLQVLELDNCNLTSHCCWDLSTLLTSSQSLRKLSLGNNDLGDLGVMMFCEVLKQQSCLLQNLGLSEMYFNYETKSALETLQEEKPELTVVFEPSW
pIC50: −log10 of the molar value.
PROPERTY_MEASURED: pIC50

Task: What does the data say about its pIC50? Entry: COc1ccc(-c2nnc(N[C@@H]3CCCN(C)C3)n3cccc23)c(C)c1 [Compound 26]
Output: 7.00 to 8.00

Task: What does the data say about its pIC50? Entry: OCCN1CCC[C@@H](Nc2nnc(-c3ccc(C(F)(F)F)cc3OC(F)F)c3cncn23)C1 [Compound 186]
Output: > 9.00

Task: What does the data say about its pIC50? Entry: COc1ccc(-c2nnc(N[C@H]3C[C@@](C)(O)C3)n3cncc23)c(OCC(F)(F)F)c1 [Compound 305]
Output: 7.00 to 8.00

Next:
Task: What does the data say about its pIC50? Entry: FC(F)Oc1ccc(-c2nnc(Nc3cc[nH]n3)n3cccc23)c(OC(F)(F)F)c1 [Compound 155]
Output: 7.00 to 8.00

###

The entries below come with measured IC50 values attached.
target: NLRP3 (Homo sapiens, UniProt Q96P20); assay: IL-1β Secretion Assay (NLRP3-dependent IL1β secretion in THP1 cells); conditions: PMA-differentiated THP-1 cells; compounds incubated 20 h; 2.5 μM Nigericin 3 h; HTRF IL-1β readout; read-out: IC50 IL-1β Inhibition

Task: What does the data say about its IC50? Entry: `COc1ccc(-c2nnc(N[C@@H]3CCCN(CCO)C3)n3ccc(F)c23)c(OC(F)F)c1`
Output: 0.01 to 0.1 µM

Task: What does the data say about its IC50? Entry: CC(Nc1nnc(-c2ccc(OC(F)F)cc2OC(F)(F)F)c2cncn12)c1cccc(O)c1 (stereo not shown)
Output: < 0.001 µM

###

molecular target: NLRP3 (Homo sapiens, UniProt Q96P20); assay: IL-1β Secretion Assay (NLRP3-dependent IL1β secretion in THP1 cells); conditions: PMA-differentiated THP-1 cells; compounds incubated 20 h; 2.5 μM Nigericin 3 h; HTRF IL-1β readout; read-out: IC50 IL-1β Inhibition
pIC50: −log10 of the molar value.
The entries below come with measured pIC50 values attached.

# count of solved cases: 3
Task: What does the data say about its pIC50? Entry: `O[C@@H]1CCCC[C@H](Nc2nnc(-c3ccc(C(F)(F)F)cc3CC(F)(F)F)c3cccn23)C1.O[C@H]1CCCC[C@@H](Nc2nnc(-c3ccc(C(F)(F)F)cc3CC(F)(F)F)c3cccn23)C1`
Output: 8.00 to 9.00

Task: What does the data say about its pIC50? Entry: `CCN1CCC[C@@H](Nc2nnc(-c3ccc(OC)cc3OC(F)(F)F)c3cc(C)nn23)C1`
Output: 8.00 to 9.00

Task: What does the data say about its pIC50? Entry: `COc1ccc(-c2nnc(N[C@@H]3CCCN(CCO)C3)n3cccc23)c(OC2CC2)c1`
Output: 7.00 to 8.00

Next:
Task: What does the data say about its pIC50? Entry: `CCN1CCC[C@@H](Nc2nnc(-c3ccc(S(C)(=O)=O)cc3OC(F)(F)F)c3cc(C)nn23)C1`
Output: 7.00 to 8.00

Task: What does the data say about its pIC50? Entry: `CCN1CCC[C@@H](Nc2nnc(-c3ccc(OC)cc3C3CC3)c3cc(C)nn23)C1`
Output: 8.00 to 9.00

Task: What does the data say about its pIC50? Entry: O=C1NCCC1Nc1nnc(-c2ccc(C(F)(F)F)cc2CC(F)(F)F)c2cncn12 (stereo not shown)
Output: > 9.00

Task: What does the data say about its pIC50? Entry: COc1ccc(-c2nnc(NC3CCNC3=O)n3cncc23)c(C2CC2)c1 (stereo not shown)
Output: 7.00 to 8.00

###

The entries below come with measured IC50 values attached.
target: UniProt:Q96P20; experiment: IL-1β Secretion Assay (NLRP3-dependent IL1β secretion in THP1 cells); details: PMA-differentiated THP-1 cells; compounds incubated 20 h; 2.5 μM Nigericin 3 h; HTRF IL-1β readout; read-out: IC50 IL-1β Inhibition

# count of solved cases: 5
Task: What does the data say about its IC50? Entry: CN1C[C@H](F)C[C@@H](Nc2nnc(-c3ccc(C(F)(F)F)cc3C(F)(F)F)c3c(F)ccn23)C1 [Compound 31]
Output: 1 to 10 nM

Task: What does the data say about its IC50? Entry: FC(F)(F)Cc1cc(C(F)(F)F)ccc1-c1nnc(Nc2cc[nH]n2)n2cncc12 [Compound 267]
Output: 1 to 10 nM

Task: What does the data say about its IC50? Entry: CCN1CCC[C@@H](Nc2nnc(-c3ccc(OC)cc3C(F)(F)F)c3cncn23)C1 [Compound 212]
Output: < 1 nM

Task: What does the data say about its IC50? Entry: Cc1ccc(-c2nnc(N[C@@H]3CCCC[C@@H]3O)n3cccc23)c(OC(F)F)c1 [Compound 137]
Output: 1 to 10 nM

Task: What does the data say about its IC50? Entry: Cc1cc2c(-c3ccc(C(F)(F)F)cc3C(F)(F)F)nnc(N[C@H]3C[C@@](C)(O)C3)n2c1 [Compound 107]
Output: 10 to 100 nM

Next:
Task: What does the data say about its IC50? Entry: Cc1cc2c(-c3ccc(C(F)(F)F)cc3OC(F)(F)F)nnc(N[C@H]3C[C@@](C)(O)C3)n2n1 [Compound 3]
Output: 1 to 10 nM

Task: What does the data say about its IC50? Entry: COc1ccc(-c2nnc(NC[C@H]3CCCO3)n3cccc23)c(OC(F)(F)F)c1 [Compound 73]
Output: 10 to 100 nM

Task: What does the data say about its IC50? Entry: OCCN1CCC[C@@H](Nc2nnc(-c3ccc(C(F)(F)F)cc3OCF)c3cccn23)C1 [Compound 173]
Output: < 1 nM

###

target: NLRP3 (Homo sapiens, UniProt Q96P20); experiment: IL-1β Secretion Assay (NLRP3-dependent IL1β secretion in THP1 cells); settings: PMA-differentiated THP-1 cells; compounds incubated 20 h; 2.5 μM Nigericin 3 h; HTRF IL-1β readout; read-out: IC50 IL-1β Inhibition
pIC50: −log10 of the molar value.
PROPERTY_MEASURED: pIC50

Task: What does the data say about its pIC50? Entry: `O[C@@H]1COCC[C@H]1Nc1nnc(-c2ccc(C3CC3)cc2CC(F)(F)F)c2cncn12`
Output: 8.00 to 9.00

Task: What does the data say about its pIC50? Entry: `CCN1CCC[C@@H](Nc2nnc(-c3ccc(C(F)(F)F)cc3C(N)=O)c3cc(C)nn23)C1`
Output: 7.00 to 8.00

Task: What does the data say about its pIC50? Entry: O[C@@H]1CCCCC[C@@H]1Nc1nnc(-c2ccc(C(F)(F)F)cc2CC(F)(F)F)c2cccn12 (racemic)
Output: 8.00 to 9.00

Task: What does the data say about its pIC50? Entry: `Cc1cc2c(-c3ccc(C(F)(F)F)cc3C(F)(F)F)nnc(N[C@@H]3CCCN(C)C3)n2c1`
Output: 8.00 to 9.00

Task: What does the data say about its pIC50? Entry: `Cc1ccc(-c2nnc(N[C@@H]3CCCN(C)C3)n3cc(C)cc23)c(C(F)F)c1`
Output: 8.00 to 9.00

Task: What does the data say about its pIC50? Entry: COCC1CC(Nc2nnc(-c3ccc(OC)cc3CC(F)(F)F)c3cncn23)C1 (stereo not shown)
Output: 7.00 to 8.00

Task: What does the data say about its pIC50? Entry: `COc1ccc(-c2nnc(Nc3cc[nH]n3)n3cccc23)c(C2CC2)c1`
Output: 6.52 to 7.00

Task: What does the data say about its pIC50? Entry: `O[C@@H]1CCCC[C@H]1Nc1nnc(-c2ccc(C(F)(F)F)cc2CC(F)(F)F)c2cccn12`
Output: > 9.00

Task: What does the data say about its pIC50? Entry: `Cc1ccc(-c2nnc(N[C@@H]3CCCN(C)C3)n3cncc23)c(C(F)(F)F)c1`
Output: > 9.00

Task: What does the data say about its pIC50? Entry: `CN1CC[C@@H](O)[C@@H](Nc2nnc(-c3ccc(C(F)(F)F)cc3CC(F)(F)F)c3cncn23)C1`
Output: 8.00 to 9.00

Task: What does the data say about its pIC50? Entry: `COc1ccc(-c2nnc(N[C@@H]3CCOC[C@H]3O)n3cc(C)cc23)c(OC(F)(F)F)c1`
Output: 8.00 to 9.00

Task: What does the data say about its pIC50? Entry: `OCCN1CCC[C@@H](Nc2nnc(-c3ccc(C(F)(F)F)cc3C(F)(F)F)c3c(F)ccn23)C1`
Output: 8.00 to 9.00
